studySystem: Trace amine-associated receptor 1 (Homo sapiens)
assayNotes: blockers of beta-PEA-driven TAAR1 calcium signal – Fluo-8 calcium fluorescence, CHO RD-HGA16 cells, primary screen (AID 624466);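 note: 0% = DMSO plus EC80 beta-PEA response and 100% = DMSO alone without agonist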
measurementConditions: CHO RD-HGA16 TAAR1, Fluo-8 calcium fluorescence, antagonist; at 3 µM
In all, about 360,000 compounds went through this assay and about 5,400 (1.5%) were called active.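 Rule for the calls: active = inhibition above a per-plate cutoff, the mean inhibition of test compounds on that plate plus 3 SD (cut at about 49% in these data); inactive = the rest.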 Many of the other results were omitted from the sample, so actives are more common in it than they were.
Answer with one of the outcomes given here: true (1) for active, false (0) for inactive

CCCc1nc2ccccc2n1C(C)C(=O)NC(C)(C)C (stereo not drawn)	false (0)
Cc1cccc(-c2nc3ccc(C(=O)NCCN4CCN(C)CC4)cc3nc2-c2cccc(C)c2)c1	false (0)
Cc1ccc(N)cc1CN1CCN(c2ncc(Cc3ccccc3)cn2)CC1	false (0)
CCN1CCN(CCNC(=O)c2ccc(/C=C3/Sc4ccccc4N(Cc4cccc(C)c4)C3=O)cc2)CC1	true (1)
O=C(NCCN1CCOCC1)c1ccc2c(c1)N(Cc1cccc(Cl)c1)C(=O)c1ccccc1S2(=O)=O	false (0)
CC(C)CNC(=S)Nc1ccc(F)cc1	false (0)
Cc1cc(C)n2c(Nc3c(C)cccc3C)c(CCc3ccccc3)nc2n1	false (0)
O=C(Nc1ccccc1)c1nnsc1S(=O)(=O)c1ccc(Cl)cc1	true (1)
COC(=O)c1ccc2c(c1)S(=O)(=O)NC2C (stereo not drawn)	false (0)
CC(C)Nc1nnc(SC(C)C(=O)N(C)C2CCCCC2)s1 (stereo not drawn)	false (0)

# fetch the recorded call for O=c1[nH]c(-c2ccccc2)cn1C1CCN(Cc2ccc(-c3nc4ccc(F)cc4nc3-c3ccccc3)cc2)CC1 here
false (0)

# fetch the recorded call for O=C(NCCN1CCOCC1)/C(=C/c1ccc(F)cc1)NC(=O)c1ccccc1 here
false (0)

# fetch the recorded call for O=C(Nc1ccc(F)cc1)C(CCc1ccccc1)N1CCN(CC(=O)N2CCCC2)CC1 (stereo not drawn) here
false (0)

# fetch the recorded call for Cc1ccccc1NC(=O)Cc1nc(COC(=O)C(C)(C)Oc2ccc(Cl)cc2)cs1 here
true (1)

# fetch the recorded call for O=CN1CCN(C(=O)c2ccc(Br)o2)CC1 here
false (0)

# fetch the recorded call for Cc1ccc(C)c(NS(=O)(=O)c2c(C)[nH]c(C)c2C(=O)N2CCCCC2)c1 here
false (0)
